Provenance of the data: the Immune Epitope Database (IEDB)

- Target System: HLA-B*18:01
- Assay Procedure: IEDB peptide-MHC binding, purified MHC/competitive/fluorescence; filed as Kd, often an IC50 or EC50 that approximates it; bounds were set here for any values at or beyond the usual limits of such assays
- Reported Conditions: source organism: Acinetobacter baumannii
Measurement Name: Kd

Please look up its Kd: `SIYAGNTPK`
≥ 20 µM

###

- Target System: HLA-A*01:01
- Assay Procedure: IEDB peptide-MHC binding, purified MHC/competitive/fluorescence; filed as Kd, often an IC50 or EC50 that approximates it; bounds were set here for any values at or beyond the usual limits of such assays
- Reported Conditions: source organism: Homo sapiens
pKd: −log10 of the molar value.
Measurement Name: pKd

Please look up its pKd: `YYSNKAYQY`
≤ 4.70

###

- Target System: HLA-B*54:01
- Assay Procedure: IEDB peptide-MHC binding, purified MHC/competitive/radioactivity; filed as Kd, often an IC50 or EC50 that approximates it; bounds were set here for any values at or beyond the usual limits of such assays
- Reported Conditions: source organism: Mammarenavirus lassaense
pKd: −log10 of the molar value.
Measurement Name: pKd

Please look up its pKd: `YPSMFEKHI`
≤ 4.69

###

- Target System: HLA-B*53:01
- Assay Procedure: IEDB peptide-MHC binding, purified MHC/competitive/radioactivity; filed as Kd, often an IC50 or EC50 that approximates it; bounds were set here for any values at or beyond the usual limits of such assays
- Reported Conditions: source organism: Mammarenavirus lassaense
Measurement Name: pKd
Lab note: report pKd as minus log10 of the concentration in molar units, number only.

Please look up its pKd: `YPSMFEKHI`
6.64

###

- Target System: HLA-B*27:03
- Assay Procedure: IEDB peptide-MHC binding, purified MHC/competitive/fluorescence; filed as Kd, often an IC50 or EC50 that approximates it; bounds were set here for any values at or beyond the usual limits of such assays
- Reported Conditions: source organism: Hantaan virus 76-118
Measurement Name: Kd

Please look up its Kd: `IRKPKHLYV`
≥ 20 µM

###

- Target System: HLA-A*29:02
- Assay Procedure: IEDB peptide-MHC binding, purified MHC/competitive/fluorescence; filed as Kd, often an IC50 or EC50 that approximates it; bounds were set here for any values at or beyond the usual limits of such assays
- Reported Conditions: source organism: Streptococcus pneumoniae TIGR4
Measurement Name: Kd

Please look up its Kd: `CLSDEINHV`
≥ 20 µM

###

- Target System: HLA-A*02:01
- Assay Procedure: IEDB peptide-MHC binding, purified MHC/competitive/fluorescence; bounds were set here for any values at or beyond the usual limits of such assays
- Reported Conditions: source organism: Vaccinia virus
Measurement Name: pIC50
Lab note: report pIC50 as minus log10 of the concentration in molar units, number only.

Please look up its pIC50: `RAFRNLNVT`
4.32

###

- Target System: HLA-B*18:01
- Assay Procedure: IEDB peptide-MHC binding, purified MHC/competitive/fluorescence; filed as Kd, often an IC50 or EC50 that approximates it; bounds were set here for any values at or beyond the usual limits of such assays
- Reported Conditions: source organism: Escherichia coli E110019
Measurement Name: Kd

Please look up its Kd: `RAFWGQVQK`
≥ 20 µM

###

- Target System: HLA-C*14:02
- Assay Procedure: IEDB peptide-MHC binding, purified MHC/direct/fluorescence; filed as Kd, often an IC50 or EC50 that approximates it; bounds were set here for any values at or beyond the usual limits of such assays
- Reported Conditions: source organism: Vibrio cholerae 2740-80
Measurement Name: Kd

Tell me reported Kd for `AYYWNQNGF` , tested with HLA-C*14:02.
≤ 1 nM
